Test system: c-Src
Run Description: phosphorylation enrichment, bacterial display (enrichment ratio); higher = better substrate or ligand; peptides without Tyr show the background;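 note: 11-residue human phosphosite peptides and single-mutation variants displayed on the E. coli surface, counted by deep sequencing, each peptide's frequency after selection divided by its frequency in the unselected input library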;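 note: frequency after pTyr selection over input frequency; kinase dosed for 20-30% of maximal phosphorylation in three min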
Please use Satisfied whenever phosphorylation enrichment is not below 0.5, and Not satisfied whenever it is.

Worked set:
Sequence Chain	Group
GITVAYTIPKK [UBA5_Y372]	Not satisfied
EPGNLYIAKVE [CNTN4_Y180_T176P]	Not satisfied

Query :: Item STKELYEKYMI with phosphorylation enrichment of 0.5 or above?
Result :: Satisfied

Query :: Item RIILLYIFLKN [STXBP1_Y411] with phosphorylation enrichment of 0.5 or above?
Result :: Satisfied

Query :: Item LTDLRYKVSGL with phosphorylation enrichment of 0.5 or above?
Result :: Not satisfied

Query :: Item IQVNAYFSPIH [ADSL_Y432_D430N] with phosphorylation enrichment of 0.5 or above?
Result :: Satisfied

Query :: Item LRVHSYKSMQP [DRC7_Y516] with phosphorylation enrichment of 0.5 or above?
Result :: Satisfied

###

Test system: AncSZ
Run Description: phosphorylation enrichment, bacterial display (enrichment ratio); higher = better substrate or ligand; peptides without Tyr show the background
Overview of reported phosphorylation enrichment across a group of sequences:
Write no unit; give the number alone.

Example results:
Sequence Chain	phosphorylation enrichment
EMFNPCFGLFE [NEDD4L_Y679_Y679C_YF]	1.27
YIATQYSLRPR [LBR_Y166]	0.932
RFMVGYEMLAQ [GALT_Y339_K334R]	1.38

Here's the next entry for you.
Query :: Give the reported phosphorylation enrichment for RDWSLYFKIIE [KRT18_Y129_H128L] (system: AncSZ).
Result :: 1.66

###

Test System: Jak2 (UniProt O60674)
Sequence (O60674 whole entry, looked up): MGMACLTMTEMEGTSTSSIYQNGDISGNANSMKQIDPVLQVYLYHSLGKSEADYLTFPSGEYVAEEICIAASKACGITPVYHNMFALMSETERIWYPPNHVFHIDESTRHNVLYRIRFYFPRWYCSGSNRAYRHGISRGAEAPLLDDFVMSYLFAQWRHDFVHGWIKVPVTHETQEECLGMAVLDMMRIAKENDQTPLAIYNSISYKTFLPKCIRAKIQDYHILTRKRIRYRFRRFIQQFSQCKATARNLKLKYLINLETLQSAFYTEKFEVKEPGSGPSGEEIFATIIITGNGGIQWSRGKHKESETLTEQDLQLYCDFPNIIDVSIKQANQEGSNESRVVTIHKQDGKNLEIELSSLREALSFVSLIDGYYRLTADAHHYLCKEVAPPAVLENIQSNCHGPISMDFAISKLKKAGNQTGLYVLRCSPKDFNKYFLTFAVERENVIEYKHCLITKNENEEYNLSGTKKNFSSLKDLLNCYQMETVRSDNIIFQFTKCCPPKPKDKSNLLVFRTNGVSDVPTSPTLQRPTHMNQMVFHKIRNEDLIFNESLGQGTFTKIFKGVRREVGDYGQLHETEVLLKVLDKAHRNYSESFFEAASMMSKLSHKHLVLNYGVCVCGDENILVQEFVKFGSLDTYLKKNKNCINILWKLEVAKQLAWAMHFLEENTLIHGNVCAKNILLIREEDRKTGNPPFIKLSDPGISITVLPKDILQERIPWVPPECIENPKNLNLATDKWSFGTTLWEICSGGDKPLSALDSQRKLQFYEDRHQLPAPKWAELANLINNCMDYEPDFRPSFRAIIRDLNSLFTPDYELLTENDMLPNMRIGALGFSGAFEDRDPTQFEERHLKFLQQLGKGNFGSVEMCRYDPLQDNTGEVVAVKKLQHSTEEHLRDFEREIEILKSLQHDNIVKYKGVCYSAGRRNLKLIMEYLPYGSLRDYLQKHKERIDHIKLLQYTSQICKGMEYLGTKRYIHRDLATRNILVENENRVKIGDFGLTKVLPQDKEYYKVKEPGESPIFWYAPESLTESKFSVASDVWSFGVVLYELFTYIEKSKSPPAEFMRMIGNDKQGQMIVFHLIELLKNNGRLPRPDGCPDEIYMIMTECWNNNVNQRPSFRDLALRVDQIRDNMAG
Run Description: phosphorylation enrichment, bacterial display (enrichment ratio); higher = better substrate or ligand; peptides without Tyr show the background
Please use yes (1) whenever phosphorylation enrichment is not below 0.9, and no (0) whenever it is.

Query :: Item RLAKTYETTLK [ALB_Y377_E382K] with phosphorylation enrichment of 0.9 or above?
Result :: no (0)

Query :: Item RSDEDYLCREE [POR_Y573_Y575C] with phosphorylation enrichment of 0.9 or above?
Result :: yes (1)

Query :: Item LRVHSYKSMQP [DRC7_Y516] with phosphorylation enrichment of 0.9 or above?
Result :: no (0)

Query :: Item IHHIDYFKKTT [FGFR1_Y653_YF] with phosphorylation enrichment of 0.9 or above?
Result :: no (0)

Query :: Item SGSFRYGSSCE [SELE_Y390] with phosphorylation enrichment of 0.9 or above?
Result :: no (0)

Query :: Item DFDNLYYWDQD [ERBB2_Y1221_A1216D] with phosphorylation enrichment of 0.9 or above?
Result :: yes (1)

Query :: Item TRYDEYLEVTK [MAP1A_Y2217_H2214Y] with phosphorylation enrichment of 0.9 or above?
Result :: yes (1)

###

Test System: Fes (UniProt P07332)
Sequence (P07332 whole entry, looked up): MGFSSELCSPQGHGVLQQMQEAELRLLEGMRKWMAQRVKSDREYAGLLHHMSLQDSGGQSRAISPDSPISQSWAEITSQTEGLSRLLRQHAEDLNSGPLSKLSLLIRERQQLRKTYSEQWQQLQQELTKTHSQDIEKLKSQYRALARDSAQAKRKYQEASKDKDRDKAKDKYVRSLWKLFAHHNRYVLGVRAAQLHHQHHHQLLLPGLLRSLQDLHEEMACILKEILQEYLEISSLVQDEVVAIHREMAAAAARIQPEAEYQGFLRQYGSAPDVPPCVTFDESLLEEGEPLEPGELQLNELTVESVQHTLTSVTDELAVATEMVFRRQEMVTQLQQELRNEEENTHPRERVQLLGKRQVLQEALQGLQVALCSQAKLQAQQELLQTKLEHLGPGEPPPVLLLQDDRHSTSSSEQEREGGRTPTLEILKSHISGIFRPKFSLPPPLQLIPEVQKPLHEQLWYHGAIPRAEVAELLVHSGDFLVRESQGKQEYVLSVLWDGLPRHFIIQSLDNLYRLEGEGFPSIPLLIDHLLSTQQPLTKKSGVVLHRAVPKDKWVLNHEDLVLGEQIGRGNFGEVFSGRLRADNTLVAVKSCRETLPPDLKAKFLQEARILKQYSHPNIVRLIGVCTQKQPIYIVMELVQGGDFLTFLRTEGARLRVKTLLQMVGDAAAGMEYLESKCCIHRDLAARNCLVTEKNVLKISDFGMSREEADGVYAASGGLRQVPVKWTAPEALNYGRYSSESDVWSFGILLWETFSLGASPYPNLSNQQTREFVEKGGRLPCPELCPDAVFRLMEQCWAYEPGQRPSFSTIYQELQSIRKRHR
Run Description: phosphorylation enrichment, bacterial display (enrichment ratio); higher = better substrate or ligand; peptides without Tyr show the background
Overview of reported phosphorylation enrichment across a group of sequences:
Write no unit; give the number alone.

Example results:
Sequence Chain	phosphorylation enrichment
ATPKGYERDAS [OTC_Y223_P225R]	0.68
DGKYSYLKVGH [GRM3_Y480_G475D]	0.623
FEPWVYSFSYE [PRKDC_Y647]	1.36
HAVVDYMRRQK [ATM_Y1915_L1910H]	1.14
NFYEYYVDDPL [GCHFR_Y48_P53L]	1.74
FSEVRYVKEPY [HIPK4_Y170]	1.06
LRAGVYREKDQ [DNM2_Y626_P627R]	0.636
DENWFYMRAAS [RPS19_Y54_T55M]	1.52
RRIHRYRGHLW [VHL_Y112_S111R]	0.524
YNNYGYGSDGF [HNRNPH3_Y161_N163S]	0.784

Query :: Could you tell me which phosphorylation enrichment is on file for KVQVSYKGDTK [HSPA1A_Y107_E110D] ?
Result :: 0.598

Query :: Could you tell me which phosphorylation enrichment is on file for SHPSSYTTHPQ [NIPBL_Y195] ?
Result :: 0.82

Query :: Could you tell me which phosphorylation enrichment is on file for IAINKYGVSLI [MYO7A_Y2136] ?
Result :: 1.12

Query :: Could you tell me which phosphorylation enrichment is on file for QADVTYVNTQL [MERTK_Y872_I871T] ?
Result :: 0.942

Query :: Could you tell me which phosphorylation enrichment is on file for FSCLPYGRLAF [SLC52A2_Y305_YF] ?
Result :: 1.01

###

Test System: EPHB1 (UniProt P54762)
Sequence (P54762 whole entry, looked up): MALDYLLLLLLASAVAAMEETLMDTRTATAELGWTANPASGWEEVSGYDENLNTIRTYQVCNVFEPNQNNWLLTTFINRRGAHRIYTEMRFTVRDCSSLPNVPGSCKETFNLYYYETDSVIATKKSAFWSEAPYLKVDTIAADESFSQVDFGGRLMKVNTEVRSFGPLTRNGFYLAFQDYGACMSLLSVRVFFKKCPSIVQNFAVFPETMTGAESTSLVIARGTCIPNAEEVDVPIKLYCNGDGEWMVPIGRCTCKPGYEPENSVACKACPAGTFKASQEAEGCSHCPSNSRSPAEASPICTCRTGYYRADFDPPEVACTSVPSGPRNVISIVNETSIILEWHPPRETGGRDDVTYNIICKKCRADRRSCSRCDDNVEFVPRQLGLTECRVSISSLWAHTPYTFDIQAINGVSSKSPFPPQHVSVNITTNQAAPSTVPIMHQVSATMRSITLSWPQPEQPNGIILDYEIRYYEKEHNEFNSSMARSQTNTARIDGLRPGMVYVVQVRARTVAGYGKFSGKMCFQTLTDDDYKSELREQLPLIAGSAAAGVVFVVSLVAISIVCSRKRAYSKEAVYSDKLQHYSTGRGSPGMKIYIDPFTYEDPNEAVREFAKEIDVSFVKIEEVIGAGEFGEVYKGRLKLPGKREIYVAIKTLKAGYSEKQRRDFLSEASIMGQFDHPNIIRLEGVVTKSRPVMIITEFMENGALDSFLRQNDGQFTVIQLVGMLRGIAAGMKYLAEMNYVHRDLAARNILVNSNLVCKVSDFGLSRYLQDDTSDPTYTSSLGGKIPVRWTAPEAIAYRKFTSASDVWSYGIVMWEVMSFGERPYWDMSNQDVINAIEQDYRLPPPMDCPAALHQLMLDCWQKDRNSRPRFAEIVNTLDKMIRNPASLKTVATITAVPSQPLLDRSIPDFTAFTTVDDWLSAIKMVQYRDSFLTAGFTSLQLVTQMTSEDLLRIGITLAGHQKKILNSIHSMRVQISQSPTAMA
Run Description: phosphorylation enrichment, bacterial display (enrichment ratio); higher = better substrate or ligand; peptides without Tyr show the background
Please use fulfilled whenever phosphorylation enrichment is not below 0.5, and not fulfilled whenever it is.

Sequence Chain	Test System	Group
NLRQQYNSPQE [UMPS_Y432_G429R]	EPHB1 (UniProt P54762)	not fulfilled

Query :: Item DKITQYVEEVR [STX2_Y49_K54R] with phosphorylation enrichment of 0.5 or above?
Result :: fulfilled

Query :: Item AFSLKYDQQTQ [SYTL4_Y366_E367D] with phosphorylation enrichment of 0.5 or above?
Result :: not fulfilled

Query :: Item SVVVPYEPPKV [TP53_Y220_E224K] with phosphorylation enrichment of 0.5 or above?
Result :: not fulfilled

Query :: Item LAGRFYALRSM [CKB_Y174_K177R_YF] with phosphorylation enrichment of 0.5 or above?
Result :: fulfilled

Query :: Item PQIVKYRPDCI [LDHB_Y128_S129R] with phosphorylation enrichment of 0.5 or above?
Result :: fulfilled

Query :: Item FTGNTYRVGDT [FN1_Y106_YF] with phosphorylation enrichment of 0.5 or above?
Result :: not fulfilled

Query :: Item PLDGEYFTHQI [TP53_Y327_L330H] with phosphorylation enrichment of 0.5 or above?
Result :: fulfilled

Query :: Item RRERPYGGGGG [FUS_Y526] with phosphorylation enrichment of 0.5 or above?
Result :: not fulfilled

Query :: Item GESKDYALHAG [SVIL_Y185_V189A] with phosphorylation enrichment of 0.5 or above?
Result :: not fulfilled

Query :: Item DNLNNYVFQGQ [GRIN2A_Y978] with phosphorylation enrichment of 0.5 or above?
Result :: fulfilled

Query :: Item RGFRVCFTPDS [PTPRF_Y450_Y450C_YF] with phosphorylation enrichment of 0.5 or above?
Result :: fulfilled

Query :: Item KAEQLYIGVTV [EFHC2_Y509_E507Q] with phosphorylation enrichment of 0.5 or above?
Result :: fulfilled

Query :: Item MSYDRYMAICH [OR2A5_Y123] with phosphorylation enrichment of 0.5 or above?
Result :: fulfilled

Query :: Item LADKPYTFEYY [FXN_Y118_D122Y] with phosphorylation enrichment of 0.5 or above?
Result :: fulfilled

###

Test System: Fyn (UniProt P06241)
Sequence (P06241 whole entry, looked up): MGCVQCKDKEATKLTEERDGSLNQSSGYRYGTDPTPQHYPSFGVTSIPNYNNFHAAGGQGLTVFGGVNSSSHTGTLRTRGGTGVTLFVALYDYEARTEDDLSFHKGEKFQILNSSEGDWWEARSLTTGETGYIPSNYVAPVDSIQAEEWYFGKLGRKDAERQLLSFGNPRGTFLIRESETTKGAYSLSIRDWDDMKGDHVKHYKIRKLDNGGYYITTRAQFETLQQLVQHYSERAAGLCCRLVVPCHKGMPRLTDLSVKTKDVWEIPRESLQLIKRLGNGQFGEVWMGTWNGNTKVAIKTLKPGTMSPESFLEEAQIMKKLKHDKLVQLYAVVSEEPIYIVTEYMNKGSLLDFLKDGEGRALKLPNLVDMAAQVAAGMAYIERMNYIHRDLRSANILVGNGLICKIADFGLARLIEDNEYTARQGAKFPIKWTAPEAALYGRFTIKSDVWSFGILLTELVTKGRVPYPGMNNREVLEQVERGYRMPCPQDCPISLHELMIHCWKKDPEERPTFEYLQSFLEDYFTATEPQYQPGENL
Run Description: phosphorylation enrichment, bacterial display (enrichment ratio); higher = better substrate or ligand; peptides without Tyr show the background
Please use yes (1) whenever phosphorylation enrichment is not below 0.5, and no (0) whenever it is.

Sequence Chain	Group
LSFSEYASVQV [SIRPA_Y496_P491L]	yes (1)
ETKAFYPEEIS [HSPA1A_Y115]	no (0)
PIFLFYLMDLS [ITGB2_Y131_D128Y_YF]	yes (1)
HIKHNYECLVY [XRCC5_Y416]	yes (1)
FSVDSYDSSVR [KCNQ1_Y461_G460S]	no (0)
VAMDDYLKNVV [LRRK2_Y707_M712V]	no (0)
ALAHKCHGGGG [HBB_Y146_Y146C]	no (0)
VTQEPYELYCE [CBL_Y368_Q367P]	yes (1)
EGDGVYTLNNK [HP_Y125_E130K]	yes (1)
EFKKKYSDADI [CKAP5_Y1860_YF]	no (0)

Now look at this entry.
Query :: Item RSRQIYDAYIM [GRK3_Y109] with phosphorylation enrichment of 0.5 or above?
Result :: yes (1)

###

Test system: AncSZ
Run Description: phosphorylation enrichment, bacterial display (enrichment ratio); higher = better substrate or ligand; peptides without Tyr show the background
Readout Type: phosphorylation enrichment

Example results:
Sequence Chain	Readout Type	Result
LNAGAYSKVVQ [PPT1_Y172]	phosphorylation enrichment	1.12
WNDLDYMDSRR [GAA_Y407]	phosphorylation enrichment	1.34
GKGGSYSQAAC [HLA-B_Y344]	phosphorylation enrichment	0.452
YQKDVYNIPPS [NEDD9_Y177_D178N]	phosphorylation enrichment	0.81

Query :: Could you tell me which phosphorylation enrichment is on file for FSEVRYVKEPY [HIPK4_Y170] ?
Result :: 0.9

Query :: Could you tell me which phosphorylation enrichment is on file for RLLRGYDQFAY [HLA-C_Y137_S140F] ?
Result :: 0.794

Query :: Could you tell me which phosphorylation enrichment is on file for AFLQTYAHEVS [PCDHGA5_Y753_S754A] ?
Result :: 0.896

Query :: Could you tell me which phosphorylation enrichment is on file for KYLENYYDLKK [MMP3_Y41] ?
Result :: 0.922

Query :: Could you tell me which phosphorylation enrichment is on file for SLDLSYYPTSS [EMD_Y181] ?
Result :: 1.42
